FYI, the data here is from PubChem BioAssay.

experiment: basal 3T3-L1 adipocyte mitochondrial potential changes, profiling panel, cell-based, JC-1 fluorescence, 3T3-L1 adipocytes, 24 h, 100 nL compound (AID 1168); conditions: JC-1 mitochondrial fluorescence, higher = more signal, called active from +8 up or from −8 down
recorded_metric: z-score

- C=C[C@@H](COC(C)=O)NS(=O)(=O)c1ccc(Br)cc1: -0.195
- O=C1OCCC=C[C@H]2OC34C=CCN(c5ccc(Cl)cc5)C(=O)[C@H]3N(CCCCCO)C(=O)[C@@H]4C12 (some centres undefined): 1.14
- CCC[C@@H]1C[C@@]1(CCC)[C@@H](NP(=O)(c1ccccc1)c1ccccc1)c1ccc(Cl)cc1: -0.876
- O=C1c2ccccc2[C@@]2(Cc3ccccc3N(C3CC3)C2=O)[C@H](c2ccc(CO)cc2)N1C1CCCCC1: -0.971

====

assay: small-molecule microarray binders of probe aCHRDL2, primary screen, biochemical, biotinylated probe, 635/667 nm fluorescence (AID 1100); settings: higher = more signal
Each entry below lists one item and its recorded composite z-score value.
recorded_metric: composite z-score

* CC(=O)n1cc(C(O)C2C=CC3C(=O)N(c4ccccc4)C(=O)C3N2Nc2ccccc2)c2ccccc21 (configuration not stated) | 1.52
* CN1C(=O)C2C=CC(C(O)Cc3ccccc3)N(N(c3ccccc3)c3ccccc3)C2C1=O (configuration not stated) | 0.733
* COc1cc2c(cc1OC)CN(C(=O)[C@@H]1[C@H]3C(=O)O[C@H](c4ccccc4)[C@H](c4ccccc4)N3[C@H](c3ccccc3OCCO)[C@@]13C(=O)Nc1ccc(C#CC4(O)CCCCCC4)cc13)CC2 | 0.0184
* CC(C)C(CO)N1C(=O)[C@]2(C)C3C(=O)OCCC/C=C\[C@H]3OC23C=CCN(c2ccc(Cl)cc2)C(=O)[C@@H]13 (some centres not stated) | 0.38
* COc1c(C)cc(-c2cc3c(c(-c4ccccc4)n2)[Si](C(C)C)(C(C)C)OC3)cc1C | -0.676
* COCCOC(=O)N1C(=O)[C@@]2(c3cc(C#CC4=CCCCC4)ccc31)[C@H](C(=O)N1CCN(c3ncccn3)CC1)[C@H]1C(=O)O[C@H](c3ccccc3)[C@H](c3ccccc3)N1[C@@H]2c1ccc(O)cc1 | 0.509
* COc1ccc(C(O)C2C=CC3C(=O)N(C)C(=O)C3N2N2CCCCC2)cc1 (configuration not stated) | 0.378

====

test system: PRMT1 (protein arginine N-methyltransferase 1); experiment: PRMT1 binders on small-molecule microarrays, primary screen, biochemical, small-molecule microarray, 635 nm fluorescence (AID 1088); details: small-molecule microarray binding, higher = more signal;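 also: binding of Prmt1 protein to compounds spotted on small-molecule microarray slides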
recorded_metric: composite z-score

* O=C(NC1CC1)[C@@H]1c2ccccc2C(=O)N(Cc2ccccc2)[C@H]1c1ccc(CO)cc1 | 0.449
* CCOC(=O)C1=CC[C@@H](c2ccccc2)N(S(=O)(=O)c2ccc(C)cc2)C1 | -0.363
* COc1ccc([Si](C)(C)[C@H]2[C@H](CCO)O[C@@]3(C(=O)N(Cc4cccc(N5CCCCC5=O)c4)c4ccccc43)[C@@H]2C)cc1 | 1.54
* COc1ccc([Si](C)(C)[C@H]2[C@H](CCn3cc([C@H](O)c4ccccc4)nn3)O[C@@]3(C(=O)N(Cc4cccc(N5C(=O)c6cccc7cccc5c67)c4)c4ccccc43)[C@@H]2C)cc1 | 0.492
* COc1ccc([Si](C)(C)[C@H]2[C@H](CCn3cc([C@H](O)c4ccccc4)nn3)O[C@@]3(C(=O)N(Cc4ccc(N5CCC5=O)cc4)c4ccccc43)[C@@H]2C)cc1 | 1.57
* C=CCOC(=O)[C@@H]1[C@H]2C(=O)O[C@H](c3ccccc3)[C@H](c3ccccc3)N2[C@H](c2ccc(OCCOC(=O)[C@H]3C[C@H]4C(=O)N[C@@H](CCCC[N+](C)(C)C)C(=O)N4[C@H]3c3ccc(O)cc3)cc2)[C@@]12C(=O)Nc1ccc(I)cc12 | 1.53

====

target: Follistatin-related protein 3 (Homo sapiens) (UniProt O95633); assay: FSTL3 binders on small-molecule microarrays, primary screen, biochemical, small-molecule microarray, 635 nm fluorescence (AID 1105); conditions: FSTL3 binding, higher = more signal;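 also: score merges emission near 667 nm and signal to noise per printed spot across three slides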
Sequence (O95633 whole entry, looked up): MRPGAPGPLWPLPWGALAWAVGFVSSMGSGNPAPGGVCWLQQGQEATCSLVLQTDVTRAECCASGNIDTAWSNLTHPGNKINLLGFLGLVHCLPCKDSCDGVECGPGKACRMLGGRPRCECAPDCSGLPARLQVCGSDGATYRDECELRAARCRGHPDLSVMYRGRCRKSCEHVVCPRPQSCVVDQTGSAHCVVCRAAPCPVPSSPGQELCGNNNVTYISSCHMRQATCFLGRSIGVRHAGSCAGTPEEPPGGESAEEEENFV
Listing of recorded composite z-score by entry.
recorded_metric: composite z-score

• CC(C)(C)N1CC=CC23O[C@@H]4C=CCOC(=O)[C@@H]4[C@H]2C(=O)N(CCCO)[C@@H]3C1=O (some centres undefined) = -1.69
• COc1ccc(C(O)C2C=CC3C(=O)N(C)C(=O)C3N2N2CCCCC2)cc1 (centres undefined) = 0.306
• O=C1OCC=C[C@H]2OC34C=CCN(c5ccc(Cl)cc5)C(=O)[C@H]3N(CCCCCO)C(=O)[C@@H]4[C@@H]12 (some centres undefined) = -1.51
• CC[C@H]1C2=C3C(CC[C@H]4C(OCc5ccc(F)cc5C(F)(F)F)OC[C@](C)([C@@H]34)N(C(=O)OC(C)(C)C)C2)C2COC(=O)OCC21 (some centres undefined) = 0.719

====

biological target: NADPH oxidase 2 (Homo sapiens); assay: NOX2-dependent H2O2 signal modulators, primary screen, NOX inhibitor project, cell-based, HEK293-NOX2, PMA-stimulated, Amplex Red fluorescence (AID 1159); details: 45 min, higher = more signal, called active from +8 up or from −8 down
Below is a list of entries, each paired with its recorded z-score value.
recorded_metric: z-score

- CCOC(=O)C[C@H]1[C@H](OC(=O)c2ccc(-c3ccccc3)cc2)[C@@H](NC(=O)C2CCCCC2)c2cc(OCCCO)ccc2N1C(=O)c1ccccc1: 0.169
- O=C1O[C@H](c2ccccc2)[C@H](c2ccccc2)N2[C@H]1[C@@H](C(=O)O)[C@]1(C(=O)Nc3ccccc31)[C@H]2c1ccc(O)cc1: -0.295
- CCOc1cc(C(O)C2C=CC3C(=O)N(C4CCCCC4)C(=O)C3N2Nc2ccc(OC)cc2)ccc1O (stereo unspecified): -2.2
- CCCC[C@@H]1C[C@H]1[C@@H](NC(=O)c1ccccc1)c1ccc(Cl)cc1: -0.093
- O=C(O)[C@H]1C[C@H]2C(=O)N3CCC[C@H]3C(=O)N2[C@H]1c1cccc(OCCO)c1: -0.117
- CN(C)CCCCNC(=O)[C@H]1C[C@H]2C(=O)N[C@@H](CCCCN(C)C)C(=O)N2[C@H]1c1cccc(OCCO)c1: 0.731
- CC(=O)N1Cc2ccccc2C[C@]2(N=C(c3ccc(OCCCO)cc3)O[C@@H]2c2ccccc2)C1=O: -1.31
- O=C1c2ccccc2[C@@]2(Cc3ccccc3N(C3CC3)C2=O)[C@H](c2ccc(CO)cc2)N1C1CCCCC1: 0.112
- COc1ccccc1CN1C(=O)c2ccccc2[C@@H](C(=O)NC(C)C)[C@@H]1c1ccc(CO)cc1: 0.372
- NC(=O)N1C(=O)C2C(C1=O)C1C=C(CCCO)C2C(c2cccs2)N1Cc1cc2c(cc1Br)OCO2 (stereo unspecified): -0.848
- Cc1ccc(S[C@]2(C(=O)O)CC(=O)N(Cc3ccccc3Cl)[C@@H]2c2ccc(CO)cc2)cc1: 0.646
- CC1CC/C=C\[C@H]2OC34C=CCN(CCN5CCOCC5)C(=O)[C@H]3N(CCO)C(=O)[C@@H]4C2C(=O)O1 (stereo partly specified): 0.994
- CC(C)C(=C=CC[C@@H](O)c1ccccc1OCCO)C[C@@H](O)COCc1ccccc1: 0.0182
- O=C1O[C@@H](c2ccccc2)[C@@H](c2ccccc2)N2[C@@H](c3ccccc3OCCO)[C@]3(C(=O)Nc4ccc(C#CCCO)cc43)[C@@H](C(=O)Nc3nc4ccccc4s3)[C@H]12: 1.3
- O=C1NC(=O)C2C1C=CC(C(O)c1cc(C(F)(F)F)cc(C(F)(F)F)c1)N2Nc1ccc(Cl)cc1Cl (stereo unspecified): 0.128
- C=C(C(=O)CC[C@H](OC(=O)c1cccnc1)c1ccc(CO)o1)C(C)C: 0.637

====

system: XIP peptide (Xip251-270) binding; assay: small-molecule binders of XIP peptide, primary screen, biochemical, small-molecule microarray, fluorescence 635/667 nm, 0.1 µg/mL protein (AID 1182); settings: fluorescent protein binding, 635 nm, higher = more signal, called active from +8 up or from −8 down
The label depends only on composite z-score: t if it is at least 0.9, f if it is smaller.

- COc1ccc(C(O)C2C=CC3C(=O)N(c4ccccc4)C(=O)C3N2Nc2ccc(C#N)cc2)c2ccccc12 (stereo unspecified): t
- COCCOC(=O)N1C(=O)[C@@]2(c3cc(C#CC4=CCCCC4)ccc31)[C@H](C(=O)N1CCN(c3ncccn3)CC1)[C@H]1C(=O)O[C@H](c3ccccc3)[C@H](c3ccccc3)N1[C@@H]2c1ccc(O)cc1: f
- C[C@]1(C(=O)O)c2ccccc2C(=O)N(Cc2ccccc2)[C@H]1c1ccc(CO)cc1: f
- COc1cc(CO)cc(I)c1O[C@H]1C=C(C(=O)NCCO)C[C@@H](N(Cc2ccc(F)cc2)C(=O)C2CCCO2)[C@@H]1O (stereo partly specified): f
- NC(=O)N1C(=O)C2C(C1=O)C1C=C(CCCO)C2C(c2cccs2)N1Cc1cc2c(cc1Br)OCO2 (stereo unspecified): f
- CCOC(=O)[C@H]1C/C=C/C[C@H](C(=O)OCC)C(=O)O[C@H]2[C@@H](OC)O[C@H](CO)[C@@H](OC(=O)CCc3ccccc3)[C@@H]2OC1=O: f
- COCCOC(=O)N1C(=O)[C@@]2(c3cc(C#CC4(O)CCCCCC4)ccc31)[C@H](C(=O)N1CCCCCCC1)[C@H]1C(=O)O[C@H](c3ccccc3)[C@H](c3ccccc3)N1[C@@H]2c1ccc(OCCO)cc1: t
- CO[C@H]1O[C@H](CO)[C@@H](OC(=O)c2ccc(Br)cc2)[C@@H]2OC(=O)[C@@H](Cc3ccc4ccccc4c3)C/C=C/C[C@H](Cc3ccc4ccccc4c3)C(=O)O[C@@H]12: t
- CCCC=C(CCC)[C@@H](NP(=O)(c1ccccc1)c1ccccc1)c1ccc(C(F)(F)F)cc1: f
- [N-]=[N+]=NCc1ccccc1C[C@@]1(C(=O)N2CCCCC2)N=C(c2ccc(OCCCO)cc2)O[C@@H]1c1ccccc1N=[N+]=[N-]: t
- Cc1c(NC(=O)/C(C#N)=C/C=C/c2ccccc2[N+](=O)[O-])c(=O)n(-c2ccccc2)n1C: t
- O=C(CS)NCCCCCCNC(=O)[C@@H]1C[C@@H]2C(=O)N3CCC[C@H]3C(=O)N2[C@@H]1c1cccc(OCCO)c1: t
- COc1cc(CO)cc(I)c1O[C@H]1C=C(C(=O)NCCO)C[C@@H](NCc2ccccc2F)[C@@H]1O: f
- C=CCN1C(=O)[C@]2(CC=C)N=C(c3ccc(OCCCO)cc3)O[C@@H]2c2ccccc21: t
- COC(=O)[C@@]1(Cc2ccccc2)[C@H]2c3cc(C(=O)N4CCCC4)n(C[C@H](O)CO)c3C[C@H]2CN1C(=O)c1ccccc1: f
- O=c1cccc(-c2ccc(C(F)(F)F)cc2)o1: f
- C=C(C(=O)CC[C@H](OC(C)=O)c1cccc(OCCO)c1)C(C)C: f
- C=CC1c2cc(O)c(OC)cc2CCN1Cc1sc2ccccc2c1Cl (stereo unspecified): f
- COc1c(C)cc(-c2cc3c(c(-c4ccccc4)n2)[Si](C(C)C)(C(C)C)OC3)cc1C: f
- O=C1NCC(=O)N2[C@@H]1C[C@@H](C(=O)O)[C@H]2c1ccc(O)cc1: t
- Cc1ccc(S[C@]2(C(=O)NCc3ccccc3)CC(=O)N(C(C)C)[C@@H]2c2ccc(CO)cc2I)cc1: t
- CC[C@H]1C2=C3C(CC[C@H]4C(OCc5ccc(F)cc5C(F)(F)F)OC[C@](C)([C@@H]34)N(C(=O)OC(C)(C)C)C2)C2COC(=O)OCC21 (stereo partly specified): t
- CC(C)(C)OC(=O)CC[C@@]1(C(=O)O)N=C(c2ccc(OCCCO)cc2)O[C@@H]1c1ccccc1: f
- CN(C)CCCNC(=O)[C@@]1(C)c2ccccc2C(=O)N(Cc2cc(C(F)(F)F)cc(C(F)(F)F)c2)[C@H]1c1ccc(CO)cc1: f
- CN1C(=O)C2C(C1=O)C1C=C(c3ccc(CO)cc3)C2C(c2cccs2)N1Cc1cccc(OC(F)(F)F)c1 (stereo unspecified): t
- CN1C(=O)C2C=CC(C(O)c3c(F)cccc3Cl)N(Nc3ccccc3)C2C1=O (stereo unspecified): f
- C=C(CCCC)C(=O)CC[C@@H](OC(=O)c1cccnc1)c1ccccc1OCCO: f
- COC1(C)CN(Cc2ccccc2Br)[C@H](/C=C/c2ccccc2)[C@H](Cc2ccccc2)O1 (stereo partly specified): f
- C[N+](C)(C)CCCC[C@@H]1NC(=O)[C@@H]2C[C@H](C(=O)O)[C@H](c3ccc(O)cc3)N2C1=O: t
- CCCCN1CC=CC23O[C@@H]4C=CCOC(=O)[C@@H]4[C@H]2C(=O)N(CCCO)[C@@H]3C1=O (stereo partly specified): f
- CCOc1cc(C(O)C2C=CC3C(=O)N(C)C(=O)C3N2N2CCCCC2)ccc1O (stereo unspecified): f
